FYI, the data here is from the NIST ThermoML archive (doi:10.1021/acs.jced.9b00442).

# Assay setup: 324.15 K; 100 kPa; Liquid; Vibrating tube method
Attribute measured: mass density (kg/m3)
Return type: number; implicit unit kg/m3.

Sample records with mass density:
[in] GET /values?readout=mass density&item= `CC[N+](C)(C)CCCO.O=S(=O)([N-]S(=O)(=O)C(F)(F)F)C(F)(F)F`
[out] 1440.8

[in] Next compound up: `CC[N+](CCO)(CCO)CCO.O=S(=O)([N-]S(=O)(=O)C(F)(F)F)C(F)(F)F`
[out] 1507

[in] Continue with `C[N+](CCO)(CCO)CCO.O=S(=O)([N-]S(=O)(=O)C(F)(F)F)C(F)(F)F`
[out] 1543.4

[in] Now the same for `CCCC[N+](C)(C)CC.O=S(=O)([N-]S(=O)(=O)C(F)(F)F)C(F)(F)F`
[out] 1348.9

[in] Try the compound `CC[N+](C)(C)CCOC.O=S(=O)([N-]S(=O)(=O)C(F)(F)F)C(F)(F)F`
[out] 1406.8

More entries:
[in] Report mass density for `CC[N+](C)(CCO)CCO.O=S(=O)([N-]S(=O)(=O)C(F)(F)F)C(F)(F)F` please.
[out] 1491.9

[in] Next: `CCCC[N+](CCO)(CCO)CCO.O=S(=O)([N-]S(=O)(=O)C(F)(F)F)C(F)(F)F`
[out] 1434.1
